Kindly supply the reported AC50 values for the records listed here.
# assayed.system: Histamine H3 receptor (Homo sapiens, UniProt Q9Y5N1); also: assay procedure not described here
# Sequence (Q9Y5N1 whole entry): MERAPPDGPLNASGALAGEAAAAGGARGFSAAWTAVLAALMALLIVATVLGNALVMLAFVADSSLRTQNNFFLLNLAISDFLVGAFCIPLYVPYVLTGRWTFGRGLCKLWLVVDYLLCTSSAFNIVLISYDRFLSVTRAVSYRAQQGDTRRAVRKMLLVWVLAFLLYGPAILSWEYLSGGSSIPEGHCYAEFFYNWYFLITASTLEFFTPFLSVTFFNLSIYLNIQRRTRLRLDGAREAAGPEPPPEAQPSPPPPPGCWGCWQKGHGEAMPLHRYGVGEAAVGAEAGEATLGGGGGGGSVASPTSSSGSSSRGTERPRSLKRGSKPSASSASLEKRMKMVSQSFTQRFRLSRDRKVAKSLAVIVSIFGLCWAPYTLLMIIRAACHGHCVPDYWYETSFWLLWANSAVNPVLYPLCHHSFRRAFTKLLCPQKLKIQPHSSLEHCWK

- compound: "CN1C[C@H](C(=O)N[C@]2(C)O[C@@]3(O)[C@@H]4CCCN4C(=O)[C@H](Cc4ccccc4)N3C2=O)C[C@@H]2c3cccc4[nH]cc(c34)C[C@H]21 [DIHYDROERGOTAMINE]"
  assayed.system: "Histamine H3 receptor (Homo sapiens, UniProt Q9Y5N1)"
  assay.result: "> 10 µM"
- compound: "CC(=O)OCC(=O)[C@@]1(O)CC[C@H]2[C@@H]3CCC4=CC(=O)CC[C@]4(C)C3=CC[C@@]21C [ANECORTAVE ACETATE]"
  assayed.system: "Histamine H3 receptor (Homo sapiens, UniProt Q9Y5N1)"
  assay.result: "> 10 µM"
- compound: "O=C(Nc1nc(-c2cc(Cl)cs2)c(N2CCN(C3CCCCC3)CC2)s1)c1cnc(N2CCC(C(=O)O)CC2)c(Cl)c1 [AVATROMBOPAG]"
  assayed.system: "Histamine H3 receptor (Homo sapiens, UniProt Q9Y5N1)"
  assay.result: "> 10 µM"

Please supply AC50 for each of the following items, keeping them in order.
1. N=C(N)c1ccc2cc(OC(=O)c3ccc(N=C(N)N)cc3)ccc2c1 [NAFAMOSTAT]
2. CCOC(=O)NNc1ccc(N(CC)CC(C)O)nn1 (stereo not drawn) [CADRALAZINE]

Given back:
1. 7.9 µM
2. > 30 µM

// data source = ChEMBL document CHEMBL5291721
